Answer each item with its documented INHIBITION.
# Test system: Plasmodium berghei
# Test method notes: Screen against P. berghei liver stage (PbLuc), transformed with Luciferase, at 2uM
# Assay type: functional, HepG2
# Test settings: tested at 2 uM
Screen size: about 68,000 compounds; about 2,700 (4%) showed an effect of 50% or more. Many of the other results were omitted from the sample, so strong results are more common in it than they were.
# output: bare number, implied unit %

State the recorded INHIBITION for this entry: O=C(NCc1nnc2ccccn12)N1CCOC(c2ccsc2)C1 (configuration not stated) 63.39

Subsequent entry: CCn1cnnc1CNC(=O)N1CCOC(c2ccccc2Cl)C1 (configuration not stated) 42.19

Subsequent entry: `FC(F)(F)c1cccc(OC2CCN(Cc3c[nH]cn3)CC2)c1` -6.65

Subsequent entry: Cc1ccc(C2CN(C(=O)NCc3nnc4ccccn34)CCO2)o1 (configuration not stated) 26.03

Subsequent entry: `O=C(NCc1nnc2ccccn12)N1CCc2sccc2C1` 30.31

Subsequent entry: Cc1nnn2c1COC(CNC(=O)c1cccn1C)C2 (configuration not stated) 42.4

Subsequent entry: `COCC(=O)N1CC2(CCN(c3ccccc3)C2)C1` -31.82

Subsequent entry: `CC(C)Cc1cc(C(=O)NC(C)C)[nH]n1` 31.66

Subsequent entry: O=C(NCc1nnc2ccccn12)N1CCOC(c2cccs2)C1 (configuration not stated) 50.46

Subsequent entry: Cc1ccccc1CCCN1CCS(=O)(=O)CC1C (configuration not stated) -31.95

Subsequent entry: CC(C)(CNC1CCCN(Cc2ccccc2F)C1)CN1CCOCC1 (configuration not stated) 18.22

Subsequent entry: `CCO[C@H]1CO[C@@]2(CCCN(S(=O)(=O)c3ccccc3)C2)C1` -89.74

====

# System: Plasmodium berghei
# Test method notes: Screen against P. berghei liver stage (PbLuc), transformed with Luciferase, at 2uM
# Format: functional, HepG2
# Test settings: tested at 2 uM
Among all 68,000 compounds or so, about 2,700 (4%) showed an effect of 50% or more. The full list was thinned out, with strong results kept by preference.
Reported property: INHIBITION (%)
# output: bare number, implied unit %

State the recorded INHIBITION for this entry: `CCc1cnc(N2CCc3ncnc(N4CCN(C)CC4)c3CC2)nc1` -64.85

Subsequent entry: `COCCn1cnc2ccc(NC(=O)CCCn3cccn3)cc2c1=O` 52.05

Subsequent entry: `CC(C)Cn1cnc2ccc(NC(=O)CCCn3cccn3)cc2c1=O` 16.03

Subsequent entry: CC(=O)N1CCCC1c1nc(N(C)C)ncc1-c1ccccc1 (stereo unspecified) 7.47

Subsequent entry: `Cn1cnc2ccc(NC(=O)CCCn3cccn3)cc2c1=O` 25.61

Subsequent entry: `COc1cc(OC)cc(C(=O)N(C)Cc2nnc3ccccn23)c1` 34.39

====

# Tested on: Plasmodium berghei
# Test method notes: Screen against P. berghei liver stage (PbLuc), transformed with Luciferase, at 2uM
# Type: functional, HepG2
# Test settings: tested at 2 uM
The whole screen tested about 68,000 compounds, of which about 2,700 (4%) showed an effect of 50% or more. This excerpt belongs to a sample that is enriched for strong results.
Reported property: INHIBITION (%)
# output: bare number, implied unit %

State the recorded INHIBITION for this entry: Cc1n[nH]cc1CNC(C)c1cccc(N2CCCC2=O)c1 (configuration not stated) 11.31

Subsequent entry: `CCN(CCc1nccs1)C(=O)c1ccco1` 44.23

Subsequent entry: NC(=O)NC(=O)C(c1ccccc1)N1CCN(Cc2ccsc2)CC1 (configuration not stated) 50.3

Subsequent entry: `CCc1ccsc1C(=O)N(C)CCc1ccncc1` 70.66

Subsequent entry: `CN(CCc1ccncc1)CCc1nccs1` 78.24

Subsequent entry: Cc1cc(NC(=O)NCC(C(C)C)N2CCOCC2)n(C)n1 (configuration not stated) 11.63

Subsequent entry: CC1CCC(NS(=O)(=O)CC(=O)Nc2ccc(N3CCCC3)cn2)CC1 (configuration not stated) -3.25

Subsequent entry: `Cn1ncc2c(N[C@@H]3C[C@H]4CC[C@@H]3C4)nc(-c3ccncc3)nc21` 67.85

Subsequent entry: `Cn1ncc2c(NC3CCC3)nc(-c3ccncc3)nc21` -24.62

Subsequent entry: Cc1cc(C)c2nc(CN3CCCC(c4cc[nH]n4)C3)cc(O)c2c1 (configuration not stated) -45.64

Subsequent entry: `CCC(=O)N(CC)CCc1nccs1` 36.57

Subsequent entry: CCc1nc(CNC(C)c2cccc(N3CCCC3=O)c2)cs1 (configuration not stated) 0.45

====

# System: Plasmodium berghei
# Test method notes: Screen against P. berghei liver stage (PbLuc), transformed with Luciferase, at 2uM
# Type: functional, HepG2
# Test settings: tested at 2 uM
Screen size: about 68,000 compounds; about 2,700 (4%) showed an effect of 50% or more. Shown is part of a subset that was picked to be rich in strong results.
Answer each item with its documented INHIBITION.

State the recorded INHIBITION for this entry: `CCc1ncncc1C(=O)N1CCCN(Cc2ccc(C#N)cc2)CC1` 68.24%

Subsequent entry: `O=C(c1cc(C2CC2)[nH]n1)N1CCN(Cc2ccsc2)CC1` 44.43%

Subsequent entry: `CC(C)c1ncncc1C(=O)N1CCCN(Cc2cccs2)CC1` 8.37%

Subsequent entry: `CCOC(=O)N1CC2(CCNCC2)c2cc(Cl)ccc21` -12.43%

Subsequent entry: `CC(C)c1ncncc1C(=O)N1CCN(Cc2cccnc2)CC1` 33.61%

Subsequent entry: `CC(C)c1ncncc1C(=O)N1CCCN(Cc2ccccc2)CC1` 56.02%

Subsequent entry: `CC(C)c1ncncc1C(=O)N1CCN(Cc2ccsc2)CC1` 58.05%

Subsequent entry: `CC(C)c1ncncc1C(=O)N1CCN(Cc2cscn2)CC1` -43.47%

Subsequent entry: `CN(CCn1ccnc1-c1ccccn1)S(C)(=O)=O` 35.52%

Subsequent entry: `CCc1ncncc1C(=O)N1CCN(Cc2ccsc2)CC1` -45.83%

Subsequent entry: `Cc1ccc(C(=O)N2CCN(Cc3ccsc3)CC2)n1C` 43.52%

Subsequent entry: `Cc1cc(C(=O)N2CCN(Cc3ccsc3)CC2)c(C)n1C1CC1` 53.58%

====

Answer each item with its documented INHIBITION.
# Tested on: Plasmodium berghei
# Test method notes: Screen against P. berghei liver stage (PbLuc), transformed with Luciferase, at 2uM
# Type: functional, HepG2
# Test settings: tested at 2 uM
Among all 68,000 compounds or so, about 2,700 (4%) showed an effect of 50% or more. Only a selection was taken, and strong results are over-represented in it overall.
# output: bare number, implied unit %

State the recorded INHIBITION for this entry: OCC1CCCN1c1cc(NCc2cc3ccccc3o2)ncn1 (stereo not given) -15.36

Subsequent entry: `c1ccc(-n2nnnc2NCc2ccc3c(c2)OCO3)cc1` -26.04

Subsequent entry: `CC(C)CSCCN1CCCN(S(C)(=O)=O)CC1` -14.71

Subsequent entry: CCC(=O)N1CCC2(CC1)CC(CC(=O)N(C)C)c1ccc(F)cc12 (stereo not given) -0.45

Subsequent entry: `COc1c(Cl)cc(C(=O)NCCNc2ncccn2)cc1Cl` 21.97

Subsequent entry: CNc1nc(C(=O)NCC2CCOc3ccccc3C2)cs1 (stereo not given) 76.82

Subsequent entry: `Cc1ncsc1CCC(=O)NC1CCN(c2ccc(Cl)nn2)CC1` 2.04

Subsequent entry: O=C1NCCN2CCN(C(=O)NCCc3ccccc3)CC12 (stereo not given) 33.48

Subsequent entry: Cc1ccc(C(CNCc2c[nH]nc2C)N(C)C)cc1 (stereo not given) 30.23

Subsequent entry: `N#Cc1cccnc1N1CCCN(C(=O)CCc2nccs2)CC1` -71.75

Subsequent entry: `Cc1ncccc1NC(=O)[C@H]1C[C@@H]2CCN(Cc3ccsc3)C[C@H]2O1` -30.39

Subsequent entry: `Cc1noc(NC(=O)c2ccc(Br)cc2)n1` -43.47

Subsequent entry: `CNc1nc(CNC(=O)Nc2cccc(C)c2Cl)cs1` 15.4

Subsequent entry: `COc1nc2c(cc1C(=O)NCCCc1nnc(N)s1)CCC2` 38.32

Subsequent entry: `N#Cc1ccccc1N1CCCN(C(=O)CCc2ccsc2)CC1` -107.32

Subsequent entry: `N#Cc1ccccc1N1CCCN(C(=O)CCc2nccs2)CC1` 63.95

Subsequent entry: `N#Cc1cccnc1N1CCN(C(=O)CCC(=O)c2cccs2)CC1` 53.81

Subsequent entry: `O=C(CCc1nccs1)N1CCN(c2ccccc2F)CC1` 44.12

Subsequent entry: `CNc1nc(CNC(=O)Nc2cccc(Cl)c2OC)cs1` -4.43

Subsequent entry: O=C(NCC1CCC(c2nnc(-c3cccnc3)o2)CC1)C1CC1 (stereo not given) 43.77

Subsequent entry: Cc1n[nH]c(C)c1CCC(=O)NCC1CCOc2ccccc2C1 (stereo not given) 49.02

Subsequent entry: `CCc1noc(C2CCN(C(=O)CCn3nc(C)cc3C)CC2)n1` 12.3

Subsequent entry: CCC(CO)NCc1ccc(-c2ccccc2)o1 (stereo not given) 12.02

Subsequent entry: Cc1cnc(C(=O)NCC2CCOc3ccccc3C2)cn1 (stereo not given) 10.05

Subsequent entry: `CNC(=O)C(C)(C)NC(=O)c1cc(COc2ccccc2OC)[nH]n1` -25.61
